Efficacy values by entry
Species on record: Mus musculus
Test: Percentage analgesic efficacy when compared to morphine
Type: functional
Set-up: concentration or dose not given beside the values
Report the figure in % without appending any unit label.

Before answering, review these 4 worked examples.
INSERT INTO results (molecule, readout_value) VALUES
  ('O=C(CCC(c1ccc(F)cc1)c1ccc(F)cc1)NC1CCNCC1.O=C(O)C(=O)O', 64),
  ('CCCCNC1CCN(CCCC(c2ccccc2)c2ccccc2)CC1.O=C(O)C(=O)O', 64),
  ('CCCCNC1CCN(C(=O)CCC(C#N)(c2ccc(OC)c(OC)c2)C(C)C)CC1.Cl (stereo not given)', 0),
  ('COc1ccc(CCNC2CCN(Cc3ccccc3)CC2)cc1OC.Cl', 0);

Next item in the queue.
// COc1ccc(CCNC2CCN(CCCC(C#N)(c3ccccc3)C(C)C)CC2)cc1OC.O=C(O)C(=O)O (stereo not given) : Efficacy value = 0

----------
Species on record: Mus musculus
Experiment: Percentage analgesic efficacy when compared to morphine
Type: functional
Design: concentration or dose not given beside the values
Where Efficacy equals or exceeds 50%, the correct label is 1; where it does not, the label is 0.

A selection of reference data follows.
INSERT INTO measurements (compound, assigned_class) VALUES
  ('CNC(CC(C)C)C(=O)NC1CCN(C(=O)CCC(c2ccc(F)cc2)c2ccc(F)cc2)CC1.Cl (centres undefined)', 1),
  ('COc1ccc(C(C#N)(CCC(=O)N2CCC(NCCOc3ccccc3)CC2)C(C)C)cc1OC.O=C(O)C(=O)O (centres undefined)', 0),
  ('COc1ccc(CCNC2CCN(CCCC(C#N)(c3ccc(OC)c(OC)c3)C(C)C)CC2)cc1OC.O=C(O)C(=O)O (centres undefined)', 0),
  ('COc1ccc(C(C#N)(CCCNC2CCN(C/C=C/c3ccccc3)CC2)C(C)C)cc1OC.Cl (centres undefined)', 1),
  ('COc1ccc(C(C#N)(CCCNC2CCN(CCOc3ccccc3)CC2)C(C)C)cc1OC.Cl (centres undefined)', 1);

Reported Efficacy at or above 50%? CCCCNC1CCN(CCCC(C#N)(c2ccc(OC)c(OC)c2)C(C)C)CC1.Cl (centres undefined)
1

Check if Efficacy >= 50% (inclusive). Item: COc1ccc(C(C#N)(CCCN2CCC(NCCOc3ccccc3)CC2)C(C)C)cc1OC.O=C(O)C(=O)O (centres undefined)
1

Form field: Efficacy at least 50%? Entry: COc1ccc(CCN2CCC(NCCCC(C#N)(c3ccc(OC)c(OC)c3)C(C)C)CC2)cc1OC.Cl (centres undefined)
0

----------
Biological target: Voltage-dependent N-type calcium channel subunit alpha-1B (Rattus norvegicus) (UniProt Q02294)
Sequence (Q02294 whole entry, looked up): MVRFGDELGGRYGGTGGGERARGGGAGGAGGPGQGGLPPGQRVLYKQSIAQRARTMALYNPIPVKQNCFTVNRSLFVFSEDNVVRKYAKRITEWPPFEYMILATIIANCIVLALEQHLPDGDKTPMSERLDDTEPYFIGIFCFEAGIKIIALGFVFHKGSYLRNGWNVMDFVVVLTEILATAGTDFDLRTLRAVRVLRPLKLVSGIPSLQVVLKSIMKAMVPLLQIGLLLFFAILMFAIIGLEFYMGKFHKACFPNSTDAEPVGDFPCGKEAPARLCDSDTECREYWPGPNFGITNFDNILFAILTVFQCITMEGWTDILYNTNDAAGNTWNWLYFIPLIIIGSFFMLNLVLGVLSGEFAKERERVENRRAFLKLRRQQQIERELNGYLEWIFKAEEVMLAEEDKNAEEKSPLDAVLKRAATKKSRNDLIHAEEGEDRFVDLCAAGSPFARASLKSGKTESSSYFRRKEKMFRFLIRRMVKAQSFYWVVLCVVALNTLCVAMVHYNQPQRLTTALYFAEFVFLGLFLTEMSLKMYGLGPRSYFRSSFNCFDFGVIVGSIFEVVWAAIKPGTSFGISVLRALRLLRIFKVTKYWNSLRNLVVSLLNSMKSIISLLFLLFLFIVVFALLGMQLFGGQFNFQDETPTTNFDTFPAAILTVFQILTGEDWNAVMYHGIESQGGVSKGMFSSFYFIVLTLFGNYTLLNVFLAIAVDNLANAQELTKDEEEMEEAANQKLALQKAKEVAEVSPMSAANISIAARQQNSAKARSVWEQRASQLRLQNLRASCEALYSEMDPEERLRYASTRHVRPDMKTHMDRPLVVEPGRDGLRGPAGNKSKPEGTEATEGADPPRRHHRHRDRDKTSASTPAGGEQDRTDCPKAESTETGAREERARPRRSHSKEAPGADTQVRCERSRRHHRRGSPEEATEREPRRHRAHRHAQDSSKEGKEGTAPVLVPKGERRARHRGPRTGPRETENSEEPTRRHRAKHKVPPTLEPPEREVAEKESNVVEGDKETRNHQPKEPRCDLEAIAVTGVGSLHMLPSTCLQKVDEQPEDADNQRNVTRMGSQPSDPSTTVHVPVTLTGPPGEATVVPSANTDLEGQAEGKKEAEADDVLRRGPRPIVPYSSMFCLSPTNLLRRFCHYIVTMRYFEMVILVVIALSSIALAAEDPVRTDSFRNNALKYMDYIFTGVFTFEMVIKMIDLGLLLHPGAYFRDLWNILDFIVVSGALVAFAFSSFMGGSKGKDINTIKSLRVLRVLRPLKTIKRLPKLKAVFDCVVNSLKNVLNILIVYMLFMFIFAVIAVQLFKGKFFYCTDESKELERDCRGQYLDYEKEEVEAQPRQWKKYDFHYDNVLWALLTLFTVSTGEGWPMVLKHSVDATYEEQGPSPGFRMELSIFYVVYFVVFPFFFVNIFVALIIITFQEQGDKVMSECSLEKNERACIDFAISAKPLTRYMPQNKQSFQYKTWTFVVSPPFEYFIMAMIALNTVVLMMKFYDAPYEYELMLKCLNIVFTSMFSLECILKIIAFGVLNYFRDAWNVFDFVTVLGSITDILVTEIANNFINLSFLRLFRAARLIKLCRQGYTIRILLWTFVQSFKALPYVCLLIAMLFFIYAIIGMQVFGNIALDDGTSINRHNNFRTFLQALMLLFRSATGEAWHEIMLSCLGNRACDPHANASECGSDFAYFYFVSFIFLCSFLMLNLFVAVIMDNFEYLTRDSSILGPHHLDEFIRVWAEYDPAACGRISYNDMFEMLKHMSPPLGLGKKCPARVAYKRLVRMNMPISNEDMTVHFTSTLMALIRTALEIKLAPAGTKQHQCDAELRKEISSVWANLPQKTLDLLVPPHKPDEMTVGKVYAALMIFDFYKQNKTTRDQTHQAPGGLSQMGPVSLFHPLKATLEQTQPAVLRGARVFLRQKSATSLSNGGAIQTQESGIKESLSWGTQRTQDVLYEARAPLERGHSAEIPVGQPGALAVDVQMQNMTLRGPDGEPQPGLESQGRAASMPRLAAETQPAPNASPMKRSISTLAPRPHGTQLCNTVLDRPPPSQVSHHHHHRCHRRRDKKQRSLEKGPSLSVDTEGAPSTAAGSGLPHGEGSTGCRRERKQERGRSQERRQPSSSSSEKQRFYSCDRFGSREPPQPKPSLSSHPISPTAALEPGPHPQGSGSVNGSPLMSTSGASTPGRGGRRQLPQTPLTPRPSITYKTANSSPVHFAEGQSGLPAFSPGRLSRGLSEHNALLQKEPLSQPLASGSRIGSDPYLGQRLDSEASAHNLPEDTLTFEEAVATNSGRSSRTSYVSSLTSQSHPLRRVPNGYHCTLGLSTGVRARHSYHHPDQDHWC
Test: In vitro antagonism of N-type calcium channels expressed in PC12 cells was determined as the increase in intracellular calcium influx
A collection of compounds and their measured IC50
API: value field is a number in µM; no unit string.

As a guide, the following entries are already answered.
INSERT INTO measurements (compound, readout_kind, uom, readout_value) VALUES
  ('COc1ccc(C(C#N)(CCCNC2CCN(CCOc3ccccc3)CC2)C(C)C)cc1OC.Cl (stereo not drawn)', 'IC50', 'µM', 3.8),
  ('COc1ccc(C(C#N)(CCCN2CCC(NCCOc3ccccc3)CC2)C(C)C)cc1OC.O=C(O)C(=O)O (stereo not drawn)', 'IC50', 'µM', 0.7);

Lab book: IC50 of CNC(CC(C)C)C(=O)NC1CCN(C(=O)CCC(c2ccc(F)cc2)c2ccc(F)cc2)CC1.Cl (stereo not drawn) noted as 3

meta.source: ChEMBL document CHEMBL1139437
